This listing pairs variants with measured exon inclusion enrichment score.
B1: mRNA-splicing (parent)
chain: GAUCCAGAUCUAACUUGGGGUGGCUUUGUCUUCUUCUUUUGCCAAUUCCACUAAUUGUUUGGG

# Variants of: B1
# test: exon inclusion enrichment score (log2 ratio to wild type); higher = more inclusion; FAS exon 6 minigene, HEK293

Given U15G , state its recorded exon inclusion enrichment score.
0.039
